Catalogue of pIC50 values
Molecular target: Polyunsaturated fatty acid 5-lipoxygenase (Homo sapiens, UniProt P09917)
Sequence (P09917 whole entry): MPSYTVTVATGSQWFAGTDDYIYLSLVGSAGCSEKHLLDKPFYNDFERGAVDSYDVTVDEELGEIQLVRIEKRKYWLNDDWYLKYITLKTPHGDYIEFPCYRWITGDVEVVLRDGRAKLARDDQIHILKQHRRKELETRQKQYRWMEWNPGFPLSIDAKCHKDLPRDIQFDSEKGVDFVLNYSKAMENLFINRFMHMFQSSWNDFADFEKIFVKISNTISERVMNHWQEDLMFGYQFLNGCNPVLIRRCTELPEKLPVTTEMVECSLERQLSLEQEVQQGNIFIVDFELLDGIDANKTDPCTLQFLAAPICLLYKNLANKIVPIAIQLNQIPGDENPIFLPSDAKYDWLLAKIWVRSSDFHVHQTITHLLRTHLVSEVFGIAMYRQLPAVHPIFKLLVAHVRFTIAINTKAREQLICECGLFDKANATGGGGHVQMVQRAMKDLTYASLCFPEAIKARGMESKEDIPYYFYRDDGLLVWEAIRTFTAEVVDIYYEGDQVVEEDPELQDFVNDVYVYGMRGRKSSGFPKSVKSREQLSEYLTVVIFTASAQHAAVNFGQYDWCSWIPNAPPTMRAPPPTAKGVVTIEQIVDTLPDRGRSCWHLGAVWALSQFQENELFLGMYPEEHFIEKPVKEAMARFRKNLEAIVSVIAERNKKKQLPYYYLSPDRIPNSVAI
Test: The compound was tested for the inhibition of 5-lipoxygenase (5-lo) in human whole blood (HWBL)
pIC50: −log10 of the molar value.
property: pIC50

1. Oc1nc(-c2ccc(F)cc2)sc1-c1ccccc1 ... 6.33
2. CCCOC(=O)Oc1nc(-c2ccccc2)sc1CCC ... 5.66
3. COc1ccc(-c2nc(O)c(-c3ccccc3)s2)cc1 ... 5.62

====

Biological target: Polyunsaturated fatty acid 5-lipoxygenase (Rattus norvegicus, UniProt P12527)
Sequence (P12527 whole entry): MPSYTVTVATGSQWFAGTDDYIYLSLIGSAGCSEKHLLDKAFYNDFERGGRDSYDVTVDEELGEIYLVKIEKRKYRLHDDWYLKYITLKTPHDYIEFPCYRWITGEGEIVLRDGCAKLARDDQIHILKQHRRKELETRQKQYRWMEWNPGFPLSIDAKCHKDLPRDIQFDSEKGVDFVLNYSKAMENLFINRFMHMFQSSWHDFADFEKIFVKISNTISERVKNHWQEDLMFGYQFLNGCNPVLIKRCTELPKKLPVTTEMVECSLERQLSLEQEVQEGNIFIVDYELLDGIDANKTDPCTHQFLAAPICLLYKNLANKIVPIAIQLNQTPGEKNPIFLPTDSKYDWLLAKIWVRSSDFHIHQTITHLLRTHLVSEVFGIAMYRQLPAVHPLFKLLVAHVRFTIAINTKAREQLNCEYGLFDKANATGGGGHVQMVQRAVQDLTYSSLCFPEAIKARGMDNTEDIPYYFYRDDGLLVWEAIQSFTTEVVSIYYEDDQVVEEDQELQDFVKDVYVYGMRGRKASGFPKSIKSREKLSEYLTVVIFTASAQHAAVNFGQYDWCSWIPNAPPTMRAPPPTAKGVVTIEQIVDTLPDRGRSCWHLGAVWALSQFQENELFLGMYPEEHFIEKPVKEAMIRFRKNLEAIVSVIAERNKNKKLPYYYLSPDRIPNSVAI
Assay: In vitro inhibition of 5-lipoxygenase (5-lo) from the 20000 g supernatant of RBI-1 cells
Assay type: cell-based
pIC50: −log10 of the molar value.
Catalogue of pIC50 values
property: pIC50

1. Oc1nc(-c2ccncc2)sc1-c1ccccc1 ... 6.27
2. Oc1sc(-c2ccccc2)nc1-c1ccccc1 ... 5.16
3. COc1ccc(-c2nc(O)c(-c3ccccc3)s2)cc1 ... 6.43
4. Cc1sc(-c2cccs2)nc1O ... 5.85
5. CCCc1sc(-c2ccccc2)nc1OC(=O)Nc1ccccc1 ... 6.34
6. Cc1sc(-c2ccc(C(=O)O)cc2)nc1O ... 4.52
7. CCCc1sc(-c2ccccc2)nc1OC(C)=O ... 6.28
8. CCCCCC/C(O)=C\C/C=C\C/C=C\C=C\CCCCC(=O)O ... 5.14
9. CC(=O)Oc1nc(-c2ccc(-c3ccccc3)cc2)sc1-c1ccccc1 ... 5.85
10. O=C(O)c1ccc(-c2nc(O)c(-c3ccccc3)s2)cc1 ... 5.92
11. Cc1sc(-c2cc[nH]n2)nc1O ... 4.51
12. Cc1sc(-c2ccc(SC(F)(F)F)cc2)nc1O ... 5.57
13. Cc1sc(-c2cnc3ccccc3c2)nc1O ... 4.80
